System: Trichophyton mentagrophytes
ASSAY REMARKS: Antimicrobial activity against Trichophyton mentagrophytes 445 after 72 hrs by spectrophotometry
Type: functional
EXPERIMENTAL CONTEXT: Trichophyton mentagrophytes, 445, 72 h
Listed next: entries and their corresponding log10 of MIC.
Response schema: value (number) is log10 of MIC in units of µM.

Completed entries (count: 2):
1) CCCCCCCCCCCCCC[n+]1ccc2c(O)cccc2c1
1.20
2) CCCCCCCCCCCCCCCC[N+](C)(C)Cc1ccccc1
0.89

Quick one: log10 of MIC of `CCCCCCCCCCCCCC[n+]1ccc2ccccc2c1` ?
0.59

Any idea what its log10 of MIC is? The compound is `CCCCCCCCCCCCCC[N+](C)(C)Cc1ccccc1`
1.20

Return reported log10 of MIC; argument: `CCCCCCCCCC[n+]1ccc2c(O)cccc2c1`
1.49

Consider the compound shown here: `CCCCCCCCCC[n+]1ccc2ccccc2c1` What is its recorded log10 of MIC?
1.80

Bench note: what log10 of MIC did `CCCCCCCCCCCCCCCCCC[n+]1ccc2ccccc2c1` show?
0.30

----------
Measured MFC accompanies every entry in the list below.
Tested on: Lichtheimia corymbifera
ASSAY REMARKS: Antimicrobial activity against Absidia corymbifera 272 after 48 hrs by spectrophotometry
Format: functional
EXPERIMENTAL CONTEXT: Lichtheimia corymbifera, 272, 48 h

1. CCCCCCCCCCCCCC[n+]1ccc2ccccc2c1
250 µM

Query (compound): `CCCCCCCCCCCC[N+](C)(C)Cc1ccccc1` ; field requested: MFC
7.8 µM

Query: MFC; subject: `CCCCCCCCCCCCCCCC[N+](C)(C)Cc1ccccc1`
63 µM

What does the data say about its MFC? Entry: `CCCCCCCCCC[n+]1ccc2c(O)cccc2c1`
> 500 µM

Recorded MFC for `CCCCCCCCCC[n+]1ccc2ccccc2c1` , please?
> 500 µM

Using the record for `CCCCCCCCCCCCCCCCCC[n+]1ccc2ccccc2c1` , report its MFC.
63 µM

Reported MFC for `CCCCCCCCCCCCCCCC[n+]1ccc2c(O)cccc2c1` : what is it?
> 500 µM

Recorded MFC of `CCCCCCCCCCCC[n+]1ccc2c(O)cccc2c1` , please.
250 µM

What value of MFC has been recorded for this entry: CCCCCCCCCCCC[n+]1ccc2ccccc2c1 [LAURYL ISOQUINOLINIUM BROMIDE]
250 µM

// MFC lookup, key: `CCCCCCCCCCCCCC[N+](C)(C)Cc1ccccc1`
125 µM

Suppose we examine the compound `CCCCCCCCCCCCCCCC[n+]1ccc2ccccc2c1` ; what MFC value has been reported?
125 µM

Fill in the blank: the reported MFC of `CCCCCCCCCCCCCC[n+]1ccc2c(O)cccc2c1` is ____.
125 µM

----------
System: Klebsiella pneumoniae
ASSAY REMARKS: Antimicrobial activity against clinical isolate ESBL-Klebsiella pneumoniae J 1436808 after 48 hrs
Format: functional
EXPERIMENTAL CONTEXT: J 1436808, 48 h
Threshold-based label: MIC under 60 µM gives Yes, MIC not under 60 µM gives No.

Some solved entries appear below for comparison.
1) CCCCCCCCCC[n+]1ccc2ccccc2c1
No
2) CCCCCCCCCCCCCCCCCC[n+]1ccc2ccccc2c1
No
3) CCCCCCCCCCCC[n+]1ccc2ccccc2c1 [LAURYL ISOQUINOLINIUM BROMIDE]
No
4) CCCCCCCCCCCCCCCC[N+](C)(C)Cc1ccccc1
Yes
5) CCCCCCCCCCCC[n+]1ccc2c(O)cccc2c1
No
6) CCCCCCCCCCCCCC[n+]1ccc2ccccc2c1
Yes
7) CCCCCCCCCCCCCC[n+]1ccc2c(O)cccc2c1
No
8) CCCCCCCCCC[n+]1ccc2c(O)cccc2c1
No

Let us examine a further case.
Hello, is MIC of the following compound strictly smaller than 60 µM? `CCCCCCCCCCCCCCCC[n+]1ccc2c(O)cccc2c1`
No

----------
Tested on: Trichosporon asahii
ASSAY REMARKS: Antimicrobial activity against Trichosporon asahii 1188 after 48 hrs by spectrophotometry
Format: functional
EXPERIMENTAL CONTEXT: Trichosporon asahii, 1188, 48 h
MEASURED ENDPOINT: MIC (µM)
# number only, unit µM dropped from output

I would be grateful if you could share the reported MIC for `CCCCCCCCCCCCCCCCCC[n+]1ccc2ccccc2c1` .
2

----------
System: Enterococcus sp.
ASSAY REMARKS: Antimicrobial activity against clinical isolate Enterococcus sp. J 1436508 after 48 hrs
Type: functional
EXPERIMENTAL CONTEXT: J 1436508, 48 h
Mark each entry MET if its MIC sits below 2 µM, and NOT MET for all others.

1) CCCCCCCCCCCCCCCC[n+]1ccc2c(O)cccc2c1
NOT MET
2) CCCCCCCCCC[n+]1ccc2c(O)cccc2c1
NOT MET
3) CCCCCCCCCCCC[n+]1ccc2c(O)cccc2c1
NOT MET

Hello, I'm reviewing records and need to know if MIC of `CCCCCCCCCCCC[N+](C)(C)Cc1ccccc1` is below 2 µM. Could you check?
MET

Answer whether the molecule `CCCCCCCCCC[n+]1ccc2ccccc2c1` has MIC strictly less than 2 µM
NOT MET

A record lists CCCCCCCCCCCC[n+]1ccc2ccccc2c1 [LAURYL ISOQUINOLINIUM BROMIDE] . Is its MIC below 2 µM?
NOT MET

A record lists `CCCCCCCCCCCCCC[n+]1ccc2ccccc2c1` . Is its MIC below 2 µM?
MET

Strictly below 2 µM: is that where MIC of `CCCCCCCCCCCCCC[n+]1ccc2c(O)cccc2c1` sits?
NOT MET

Is the reported MIC for `CCCCCCCCCCCCCCCC[n+]1ccc2ccccc2c1` strictly below 2 µM?
MET

----------
System: Pseudomonas aeruginosa
ASSAY REMARKS: Antimicrobial activity against clinical isolate Pseudomonas aeruginosa CCM 1961 after 120 hrs
Format: functional
EXPERIMENTAL CONTEXT: CCM 1961, 120 h
MEASURED ENDPOINT: MBC (µM)
A number alone suffices; assume µM.

Solved cases below.
1) CCCCCCCCCCCC[n+]1ccc2ccccc2c1 [LAURYL ISOQUINOLINIUM BROMIDE]
250
2) CCCCCCCCCCCC[n+]1ccc2c(O)cccc2c1
63
3) CCCCCCCCCCCCCCCC[N+](C)(C)Cc1ccccc1
125
4) CCCCCCCCCCCCCC[N+](C)(C)Cc1ccccc1
63
5) CCCCCCCCCCCCCC[n+]1ccc2ccccc2c1
63
6) CCCCCCCCCCCCCCCC[n+]1ccc2ccccc2c1
125

For the compound `CCCCCCCCCCCCCCCCCC[n+]1ccc2ccccc2c1` , what MBC is on record?
250

Form field: reported MBC of `CCCCCCCCCCCC[N+](C)(C)Cc1ccccc1`
7.8

----------
Test system: Staphylococcus aureus
ASSAY REMARKS: Antimicrobial activity against clinical isolate methicillin-resistant Staphylococcus aureus H 599608 after 48 hrs
Type: functional
EXPERIMENTAL CONTEXT: H 599608, 48 h
MEASURED ENDPOINT: MBC (µM)
Could you give me the number in µM? Just the number is fine.

Recorded results for 2 molecules are shown here.
1) CCCCCCCCCCCCCC[N+](C)(C)Cc1ccccc1
3.9
2) CCCCCCCCCCCCCCCC[n+]1ccc2c(O)cccc2c1
0.5

Query (molecule): `CCCCCCCCCCCCCCCC[n+]1ccc2ccccc2c1` ; field requested: MBC
2

Entry `CCCCCCCCCC[n+]1ccc2ccccc2c1` has what MBC?
125

Quick one: MBC for `CCCCCCCCCC[n+]1ccc2c(O)cccc2c1` ?
16

Report MBC for `CCCCCCCCCCCCCC[n+]1ccc2c(O)cccc2c1` please.
2

So what's the measured MBC for this one? `CCCCCCCCCCCC[n+]1ccc2c(O)cccc2c1`
3.9

// query MBC value for entry `CCCCCCCCCCCCCCCCCC[n+]1ccc2ccccc2c1`
2

// lookup MBC for `CCCCCCCCCCCC[N+](C)(C)Cc1ccccc1`
1

So what's the measured MBC for this one? `CCCCCCCCCCCCCC[n+]1ccc2ccccc2c1`
1

GET /values?readout=MBC&item= `CCCCCCCCCCCCCCCC[N+](C)(C)Cc1ccccc1`
3.9

What does the data say about its MBC? Entry: CCCCCCCCCCCC[n+]1ccc2ccccc2c1 [LAURYL ISOQUINOLINIUM BROMIDE]
1

----------
System: Escherichia coli
ASSAY REMARKS: Antimicrobial activity against clinical isolate Escherichia coli CCM 4517 after 24 hrs
Assay type: functional
EXPERIMENTAL CONTEXT: CCM 4517, 24 h
MEASURED ENDPOINT: MIC (µM)
The reply should be a number in µM, with the unit left off.

Please review the following examples before continuing.
1. CCCCCCCCCCCCCCCCCC[n+]1ccc2ccccc2c1
31
2. CCCCCCCCCCCC[N+](C)(C)Cc1ccccc1
0.5
3. CCCCCCCCCCCCCCCC[N+](C)(C)Cc1ccccc1
7.8
4. CCCCCCCCCCCC[n+]1ccc2ccccc2c1 [LAURYL ISOQUINOLINIUM BROMIDE]
7.8
5. CCCCCCCCCCCCCCCC[n+]1ccc2ccccc2c1
3.9

Now for the compound whose MIC we want.
Consider the compound shown here: `CCCCCCCCCCCC[n+]1ccc2c(O)cccc2c1` What is its recorded MIC?
250
